Kindly state combination Emax for each of the entries shown.
System: MIA-PaCa-2 (Pancreatic Carcinoma)
Procedure text: combination Emax (second highest fraction inhibited in the dose matrix, 72 h); higher = more inhibition; extreme values may be limits of the assay

Data point: CN(CCO)CC[C@H](CSc1ccccc1)Nc1ccc(S(=O)(=O)NC(=O)c2ccc(N3CCC([C@@H](O)c4ccccc4-c4ccc(Cl)cc4)CC3)cc2)cc1S(=O)(=O)C(F)(F)F [AZD4320] + CC(=O)O[C@H]1C(=O)[C@@]2(C)[C@H]([C@H](OC(=O)c3ccccc3)[C@]3(O)C[C@H](OC(=O)[C@H](O)[C@@H](NC(=O)c4ccccc4)c4ccccc4)C(C)=C1C3(C)C)[C@]1(OC(C)=O)CO[C@@H]1C[C@@H]2O [Paclitaxel] (first compound max 1 µM, 7x7, partner max 3 µM) ; combination Emax = 0.898

Data point: CC1(C)CCC(CN2CCN(c3ccc(C(=O)NS(=O)(=O)c4ccc(NCC5CCOCC5)c([N+](=O)[O-])c4)c(Oc4cnc5[nH]ccc5c4)c3)CC2)=C(c2ccc(Cl)cc2)C1 [Venetoclax] + CCN(CCO)CCCOc1ccc2c(Nc3cc(CC(=O)Nc4cccc(F)c4)[nH]n3)ncnc2c1 [AZD2811] (first compound max 1 µM, 7x7, partner max 1 µM) ; combination Emax = 0.37

Data point: COc1cc2c(cc1OCCCCCOc1cc3c(cc1OC)C(=O)N1C=C(C)C[C@H]1C=N3)N=C[C@@H]1CC(C)=CN1C2=O [SG3199] + O=C(c1cc(Cc2n[nH]c(=O)c3ccccc23)ccc1F)N1CCN(C(=O)C2CC2)CC1 [Olaparib] (first compound max 0.001 µM, 7x7, partner max 10 µM) ; combination Emax = 0.168
